testTarget: Histone deacetylase 9 (Homo sapiens, UniProt Q9UKV0)
Sequence (Q9UKV0 whole entry): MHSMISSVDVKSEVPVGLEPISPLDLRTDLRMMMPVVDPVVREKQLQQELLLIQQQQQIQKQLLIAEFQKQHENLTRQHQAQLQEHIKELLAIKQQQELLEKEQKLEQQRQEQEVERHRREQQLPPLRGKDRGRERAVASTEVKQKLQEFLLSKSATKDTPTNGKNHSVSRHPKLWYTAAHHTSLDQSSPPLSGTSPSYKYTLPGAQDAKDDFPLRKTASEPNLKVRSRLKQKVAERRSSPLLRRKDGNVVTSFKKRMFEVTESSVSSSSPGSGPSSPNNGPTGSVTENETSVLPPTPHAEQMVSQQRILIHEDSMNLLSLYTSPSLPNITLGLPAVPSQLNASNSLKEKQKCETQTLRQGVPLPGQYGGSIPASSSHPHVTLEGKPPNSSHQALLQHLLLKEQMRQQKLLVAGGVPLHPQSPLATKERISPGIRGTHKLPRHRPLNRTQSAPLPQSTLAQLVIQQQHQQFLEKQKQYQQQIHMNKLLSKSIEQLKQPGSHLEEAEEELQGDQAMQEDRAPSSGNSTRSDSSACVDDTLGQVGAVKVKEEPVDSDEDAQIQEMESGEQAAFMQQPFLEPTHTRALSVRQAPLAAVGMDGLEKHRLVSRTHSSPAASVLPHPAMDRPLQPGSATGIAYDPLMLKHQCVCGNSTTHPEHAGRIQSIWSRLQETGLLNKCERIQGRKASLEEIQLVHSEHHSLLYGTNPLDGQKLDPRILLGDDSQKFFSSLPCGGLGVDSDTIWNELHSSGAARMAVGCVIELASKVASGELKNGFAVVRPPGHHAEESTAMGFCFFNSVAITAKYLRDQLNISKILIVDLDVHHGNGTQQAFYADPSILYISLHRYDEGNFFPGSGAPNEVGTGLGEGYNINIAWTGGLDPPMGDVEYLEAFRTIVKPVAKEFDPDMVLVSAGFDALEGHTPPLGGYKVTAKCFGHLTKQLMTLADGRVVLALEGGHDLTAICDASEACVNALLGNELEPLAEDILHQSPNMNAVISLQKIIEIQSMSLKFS
pIC50: −log10 of the molar value.
measuredAttribute: pIC50

Measured pIC50 of O=C(NO)c1ccccc1 [BENZOHYDROXAMATE] : < 4.48

###

testTarget: Histone deacetylase 5 (Homo sapiens)
Sequence (Q9UQL6 whole entry): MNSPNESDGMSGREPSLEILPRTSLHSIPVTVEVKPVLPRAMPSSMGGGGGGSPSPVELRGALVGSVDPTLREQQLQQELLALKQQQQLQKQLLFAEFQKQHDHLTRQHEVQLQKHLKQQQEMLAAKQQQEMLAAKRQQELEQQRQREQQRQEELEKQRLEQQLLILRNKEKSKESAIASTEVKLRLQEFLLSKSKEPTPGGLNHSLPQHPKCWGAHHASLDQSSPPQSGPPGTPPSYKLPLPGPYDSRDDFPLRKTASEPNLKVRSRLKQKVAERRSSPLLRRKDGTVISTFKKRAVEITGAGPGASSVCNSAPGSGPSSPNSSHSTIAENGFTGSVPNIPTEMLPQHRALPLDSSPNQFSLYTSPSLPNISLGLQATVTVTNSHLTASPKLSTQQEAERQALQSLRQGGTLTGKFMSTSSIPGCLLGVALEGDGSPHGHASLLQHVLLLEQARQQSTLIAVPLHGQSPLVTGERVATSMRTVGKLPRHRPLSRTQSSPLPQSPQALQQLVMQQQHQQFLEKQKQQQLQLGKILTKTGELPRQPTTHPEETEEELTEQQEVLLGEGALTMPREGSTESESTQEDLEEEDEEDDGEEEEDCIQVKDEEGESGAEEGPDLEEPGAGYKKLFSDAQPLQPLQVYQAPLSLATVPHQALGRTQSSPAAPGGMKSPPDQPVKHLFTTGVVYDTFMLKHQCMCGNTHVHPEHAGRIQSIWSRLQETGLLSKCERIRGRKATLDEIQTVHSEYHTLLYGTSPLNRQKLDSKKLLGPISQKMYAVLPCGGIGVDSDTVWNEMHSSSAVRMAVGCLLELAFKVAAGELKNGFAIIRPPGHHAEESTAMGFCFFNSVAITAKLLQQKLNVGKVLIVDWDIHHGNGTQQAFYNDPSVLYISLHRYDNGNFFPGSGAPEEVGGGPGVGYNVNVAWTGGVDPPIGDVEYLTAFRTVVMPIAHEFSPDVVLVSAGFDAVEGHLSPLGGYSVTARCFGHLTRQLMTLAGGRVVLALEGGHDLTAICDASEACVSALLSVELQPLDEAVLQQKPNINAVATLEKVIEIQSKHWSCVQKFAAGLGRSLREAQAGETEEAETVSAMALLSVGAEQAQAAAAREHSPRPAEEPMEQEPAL
measuredAttribute: IC50

For O=C(NO)c1ccccc1 [BENZOHYDROXAMATE] on Histone deacetylase 5 (Homo sapiens), measured IC50 was > 33.3 µM

###

testTarget: Histone deacetylase 2 (Homo sapiens)
Sequence (Q92769 whole entry): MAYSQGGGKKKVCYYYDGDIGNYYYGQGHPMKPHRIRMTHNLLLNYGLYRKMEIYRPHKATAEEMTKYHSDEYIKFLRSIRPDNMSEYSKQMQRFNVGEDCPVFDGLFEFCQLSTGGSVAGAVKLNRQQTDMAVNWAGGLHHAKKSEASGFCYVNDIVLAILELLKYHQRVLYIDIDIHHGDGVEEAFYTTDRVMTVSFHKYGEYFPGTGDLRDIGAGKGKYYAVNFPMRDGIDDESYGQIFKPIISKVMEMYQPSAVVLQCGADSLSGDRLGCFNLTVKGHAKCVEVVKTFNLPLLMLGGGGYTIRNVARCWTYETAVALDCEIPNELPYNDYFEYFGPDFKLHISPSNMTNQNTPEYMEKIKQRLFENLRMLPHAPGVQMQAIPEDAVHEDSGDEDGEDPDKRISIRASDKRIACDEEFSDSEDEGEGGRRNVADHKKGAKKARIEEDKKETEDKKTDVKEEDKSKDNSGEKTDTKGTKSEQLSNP
measuredAttribute: pIC50
One number for each entry, as −log10 of the molar value.

// below: answered compounds
O=C(CCc1ccccc1)NO; 5.57
O=C(NO)c1ccccc1 [BENZOHYDROXAMATE]; 5.10
O=C(/C=C/c1ccccc1)NO; 6.34

Okay, now this compound:
Measured pIC50 of `O=C(NO)c1ccc(C(=O)NCc2ccccc2)cc1` : 6.42

###

Reported pIC50 for target or system Histone deacetylase 1 (Homo sapiens, UniProt Q13547), by entry.
Numbers only, as −log10 of the molar value.

O=C(NO)c1ccccc1 [BENZOHYDROXAMATE]; 5.33

Okay, now this molecule:
Measured pIC50 of `O=C(NO)C1=CCCC1` : 6.20

###

testTarget: Histone deacetylase 8 (Homo sapiens)
Sequence (Q9BY41 whole entry): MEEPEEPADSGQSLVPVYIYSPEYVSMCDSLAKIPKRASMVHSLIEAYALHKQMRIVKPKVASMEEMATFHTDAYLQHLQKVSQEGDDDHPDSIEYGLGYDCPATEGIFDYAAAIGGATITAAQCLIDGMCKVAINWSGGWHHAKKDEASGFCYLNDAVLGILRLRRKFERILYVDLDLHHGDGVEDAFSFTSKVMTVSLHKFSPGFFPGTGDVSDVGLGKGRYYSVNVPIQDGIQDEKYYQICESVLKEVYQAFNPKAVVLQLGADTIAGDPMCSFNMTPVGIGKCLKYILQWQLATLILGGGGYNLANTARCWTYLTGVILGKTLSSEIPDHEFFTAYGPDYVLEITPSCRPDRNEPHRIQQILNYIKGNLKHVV
Please assign false (0) whenever IC50 is at or above 2 µM, and true (1) whenever it is below.

O=C(NO)c1ccc(C(=O)NCc2ccccc2)cc1; true (1)
O=C(NO)C1=CCCCC1; true (1)
O=C(NO)C1=CCCC1; true (1)
O=C(NO)c1ccccc1 [BENZOHYDROXAMATE]; true (1)

Consider the record given below.
Asked: IC50 strictly < 2 µM for this molecule? O=C(Cc1ccccc1)NO [PHENYLACETOHYDROXAMIC ACID]
Given back: false (0)

###

Consider the following compounds; for each one, report its pIC50.
testTarget: Histone deacetylase 4 (Homo sapiens)
Sequence (P56524 whole entry): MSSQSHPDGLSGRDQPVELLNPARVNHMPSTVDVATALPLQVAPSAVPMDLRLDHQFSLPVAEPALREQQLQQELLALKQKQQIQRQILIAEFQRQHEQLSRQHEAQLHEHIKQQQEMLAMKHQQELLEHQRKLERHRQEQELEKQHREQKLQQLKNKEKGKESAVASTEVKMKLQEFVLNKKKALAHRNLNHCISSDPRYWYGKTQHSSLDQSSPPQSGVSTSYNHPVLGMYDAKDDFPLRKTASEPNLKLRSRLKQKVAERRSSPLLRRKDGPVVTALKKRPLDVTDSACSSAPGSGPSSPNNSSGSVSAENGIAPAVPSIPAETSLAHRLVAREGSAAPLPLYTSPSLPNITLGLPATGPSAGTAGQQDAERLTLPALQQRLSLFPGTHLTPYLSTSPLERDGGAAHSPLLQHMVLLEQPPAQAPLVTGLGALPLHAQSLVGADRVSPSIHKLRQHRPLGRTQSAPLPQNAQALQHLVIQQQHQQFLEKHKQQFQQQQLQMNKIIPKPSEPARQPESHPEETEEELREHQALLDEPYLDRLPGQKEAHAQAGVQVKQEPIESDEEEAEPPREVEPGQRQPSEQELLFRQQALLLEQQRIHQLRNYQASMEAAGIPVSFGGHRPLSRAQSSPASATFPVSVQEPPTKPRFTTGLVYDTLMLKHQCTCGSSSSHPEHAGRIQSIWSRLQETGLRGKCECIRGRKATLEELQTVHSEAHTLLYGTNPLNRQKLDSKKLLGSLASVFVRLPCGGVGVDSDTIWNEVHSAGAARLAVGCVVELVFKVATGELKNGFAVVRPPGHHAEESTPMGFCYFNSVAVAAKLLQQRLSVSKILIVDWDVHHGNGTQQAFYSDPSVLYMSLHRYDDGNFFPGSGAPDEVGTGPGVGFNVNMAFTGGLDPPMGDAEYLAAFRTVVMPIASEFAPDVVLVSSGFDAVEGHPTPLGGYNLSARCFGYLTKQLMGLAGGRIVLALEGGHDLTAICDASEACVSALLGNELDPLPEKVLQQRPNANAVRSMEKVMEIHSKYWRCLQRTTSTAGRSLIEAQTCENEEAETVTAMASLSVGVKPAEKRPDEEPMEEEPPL
pIC50: −log10 of the molar value.

O=C(NO)c1ccccc1 [BENZOHYDROXAMATE]; < 4.48
O=C(CCc1ccccc1)NO; < 4.48
O=C(/C=C/c1ccccc1)NO; 4.71
O=C(NO)c1ccc(C(=O)NCc2ccccc2)cc1; < 4.48

I'm hoping you can list pIC50 for every compound here, please.
1. CN1CCN(CCNC(=O)c2ccc(C(=O)NO)cc2)CC1
2. O=C(Cc1ccccc1)NO [PHENYLACETOHYDROXAMIC ACID]
3. O=C(NO)C1=CCCCC1

Given back:
1: < 4.48; 2: < 4.48; 3: 5.04

###

testTarget: Protein deacetylase HDAC6 (Homo sapiens, UniProt Q9UBN7)
Sequence (Q9UBN7 whole entry): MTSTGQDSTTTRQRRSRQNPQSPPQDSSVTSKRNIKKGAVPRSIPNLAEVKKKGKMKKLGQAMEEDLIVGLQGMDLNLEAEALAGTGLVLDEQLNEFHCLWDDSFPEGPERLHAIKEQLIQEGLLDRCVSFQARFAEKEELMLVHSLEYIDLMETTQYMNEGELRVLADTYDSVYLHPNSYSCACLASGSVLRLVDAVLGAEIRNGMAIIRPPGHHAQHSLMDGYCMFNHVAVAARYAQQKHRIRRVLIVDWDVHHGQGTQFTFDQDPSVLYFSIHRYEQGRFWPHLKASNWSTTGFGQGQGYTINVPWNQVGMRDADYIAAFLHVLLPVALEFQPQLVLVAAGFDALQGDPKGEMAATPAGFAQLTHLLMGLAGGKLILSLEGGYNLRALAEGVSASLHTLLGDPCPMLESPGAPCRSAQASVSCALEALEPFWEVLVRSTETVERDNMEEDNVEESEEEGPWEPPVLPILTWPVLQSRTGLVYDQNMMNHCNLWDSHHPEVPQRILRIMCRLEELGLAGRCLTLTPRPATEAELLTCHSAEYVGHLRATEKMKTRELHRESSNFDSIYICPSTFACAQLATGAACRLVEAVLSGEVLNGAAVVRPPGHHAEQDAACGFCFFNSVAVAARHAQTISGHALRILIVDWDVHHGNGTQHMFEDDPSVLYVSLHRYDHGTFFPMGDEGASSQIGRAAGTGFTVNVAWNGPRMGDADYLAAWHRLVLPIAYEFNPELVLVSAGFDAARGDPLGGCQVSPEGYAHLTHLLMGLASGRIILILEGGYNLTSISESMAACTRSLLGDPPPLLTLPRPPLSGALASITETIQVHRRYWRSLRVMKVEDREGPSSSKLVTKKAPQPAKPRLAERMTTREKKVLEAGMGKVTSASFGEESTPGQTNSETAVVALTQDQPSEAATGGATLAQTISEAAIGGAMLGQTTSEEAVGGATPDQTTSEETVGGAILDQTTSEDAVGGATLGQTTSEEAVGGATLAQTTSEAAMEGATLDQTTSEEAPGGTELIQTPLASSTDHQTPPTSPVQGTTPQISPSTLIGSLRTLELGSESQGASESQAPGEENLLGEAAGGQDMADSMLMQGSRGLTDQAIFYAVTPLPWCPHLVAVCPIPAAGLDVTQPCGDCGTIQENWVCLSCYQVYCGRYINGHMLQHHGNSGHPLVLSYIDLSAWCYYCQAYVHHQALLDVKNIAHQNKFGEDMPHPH
measuredAttribute: IC50 (nM)
Answers are plain numbers, in nM.

// below: answered molecules
O=C(CCc1ccccc1)NO; 448
O=C(NO)C1=CCCC1; 30
O=C(NO)c1ccccc1 [BENZOHYDROXAMATE]; 115

Okay, now this molecule:
Measured IC50 of `O=C(/C=C/c1ccccc1)NO` : 22

Data credit: ChEMBL document CHEMBL2331470
